- Target System: T1, APBA1_2, Q02410
- T1 sequence (Q02410 742-832, limits assumed, looked up): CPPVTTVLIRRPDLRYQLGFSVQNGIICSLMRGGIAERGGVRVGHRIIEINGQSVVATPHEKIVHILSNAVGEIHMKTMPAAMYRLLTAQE
- Protocol: holdup assay
- Parameters: key: below the threshold = too weak to quantify, mostly under pKd 3.1 to 4
- Condition Info: plain residues with an end cap or a label only (N-terminal biotin on a linker: ado-ado)
Kindly return Condition met if reported pKd is no lower than 4; return Condition not met if it is lower.

{"Binder": "NKSEPFLTWL [WWTR1, Q9GZV5]", "Category": "Condition met"}
{"Binder": "TKEIPNCTSV [SORCS3, Q9UPU3]", "Category": "Condition met"}
{"Binder": "SKQFDKNAYV [CLDN10, P78369]", "Category": "Condition not met"}
{"Binder": "PKSNSSKEYV [CLDN7, O95471]", "Category": "Condition not met"}
{"Binder": "VISSDDLTEL [CAPN6, Q9Y6Q1]", "Category": "Condition not met"}
{"Binder": "EFKQTSSFLV [JAM1, Q9Y624]", "Category": "Condition not met"}
{"Binder": "MQILSKPEFI [NPSR1, Q6W5P4]", "Category": "Condition met"}
{"Binder": "THHRKIHTRV [ZNF599, Q96NL3]", "Category": "Condition not met"}
{"Binder": "GTMFLRETSL [GUCY1A2, P33402]", "Category": "Condition not met"}
